Parameter: Response (nm). Scope: all listed entries.
- targetOrTestSystem: T1, hIL-18Rα ECD-Fc fusion protein (human, UniProt Q13478 22-329)
- T1 construct: extracellular domain; captured on Protein A sensor
- T1 sequence (looked up): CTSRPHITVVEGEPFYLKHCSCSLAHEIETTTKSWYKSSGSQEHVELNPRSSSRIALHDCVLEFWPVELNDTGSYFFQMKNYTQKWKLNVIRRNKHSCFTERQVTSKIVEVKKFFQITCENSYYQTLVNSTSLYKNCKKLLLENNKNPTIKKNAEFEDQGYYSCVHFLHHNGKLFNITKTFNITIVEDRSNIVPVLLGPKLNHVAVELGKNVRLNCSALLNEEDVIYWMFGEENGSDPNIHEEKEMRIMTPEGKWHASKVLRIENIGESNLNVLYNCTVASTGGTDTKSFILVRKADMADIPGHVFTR
- procedureSummary: BLI (Octet RED96), hIL-18Rα ECD-Fc on Protein A sensor; also: test concentration or dose not given here
Respond numerically; units are nm and should not be typed.

binder	endpointUnit	Response (nm)
IL-18 variant polypeptide M12 (ligand) YFPKLKSKLSVIRNLNDQVLFIDQGNRPLFEDMTDSDCRDNAPRTIFIISMYKGSGARGMAVTISVKCEKISTLSCENKIISFKEMNPPDTIKDTKSDIIFFQRSVPGHDNKMQFESSSYEGYFLACEKERDLFKLILKKEDELGDRSIMFTVQNED	nm	0.186

Now look at this entry.
Exercise: Identify measured Response (nm) associated with IL-18 variant polypeptide M11 (ligand) YFPKLRSKLSVIRNLNDQVLFIDQGNRPLFEDMTDSDCRDNAPRTIFIISMYKSSRNRGMAVTISVKCEKISTLSCENKIISFKEMNPPDGIKDTKSDIIFFQTSVPGHDNKMQFESSSYEGYFLACEKERDLFKLILKKEDELGDRSIMFTVQNED
Solution: 0.08
